- targetEntity: Nuclear factor erythroid 2-related factor 2 (Homo sapiens)
- Sequence (Q16236 whole entry): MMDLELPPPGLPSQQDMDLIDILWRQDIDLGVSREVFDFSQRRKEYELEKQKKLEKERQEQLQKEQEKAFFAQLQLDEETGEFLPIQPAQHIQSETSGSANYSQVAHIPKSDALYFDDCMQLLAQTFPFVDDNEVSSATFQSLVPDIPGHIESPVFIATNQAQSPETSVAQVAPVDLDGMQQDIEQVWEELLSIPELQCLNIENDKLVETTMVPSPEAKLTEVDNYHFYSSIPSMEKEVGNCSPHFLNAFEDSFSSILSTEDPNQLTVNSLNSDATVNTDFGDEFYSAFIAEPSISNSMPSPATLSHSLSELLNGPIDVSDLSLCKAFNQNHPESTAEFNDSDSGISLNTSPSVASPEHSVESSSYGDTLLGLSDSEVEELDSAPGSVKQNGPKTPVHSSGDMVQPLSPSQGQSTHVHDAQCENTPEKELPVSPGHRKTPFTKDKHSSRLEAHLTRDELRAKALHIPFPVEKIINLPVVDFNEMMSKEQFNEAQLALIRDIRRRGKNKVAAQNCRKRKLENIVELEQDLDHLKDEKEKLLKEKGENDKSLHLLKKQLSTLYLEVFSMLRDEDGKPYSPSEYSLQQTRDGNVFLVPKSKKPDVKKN
- procedureSummary: Activation of Nrf2 (unknown origin) expressed in human HepG2 cells after 5 hrs by ARE-driven luciferase reporter gene assay
observable: EC50 (µM)

Please review the entries below; each comes with its answer.
>  <molecule>
COc1cc(/C=C/C(=O)/C=C/c2ccc(O)c(OC)c2)ccc1O

>  <observable>
EC50

>  <endpointUnit>
µM

>  <recordedMeasurement>
9.9

$$$$
>  <molecule>
O=C(/C=C/c1ccccc1O)/C=C/c1ccccc1O [US9187397, 20q]

>  <observable>
EC50

>  <endpointUnit>
µM

>  <recordedMeasurement>
3.3

$$$$
>  <molecule>
COc1cc(/C=C/C(=O)CC(=O)/C=C/c2ccc(O)c(OC)c2)ccc1O

>  <observable>
EC50

>  <endpointUnit>
µM

>  <recordedMeasurement>
21

$$$$

a. Cc1ccc(C(=O)/C=C/c2ccccc2)c(C)c1
b. COc1cc(OC)c(OC)cc1/C=C/C(=O)/C=C/c1cc(OC)c(OC)cc1OC
Lab note: check whether a or b shows the higher recorded EC50. The response must carry the label of the picked entry. a
(a: 21.1 µM, b: 1.32 µM)
